target: human NaPi-IIb (Homo sapiens, UniProt O95436); construct: expressed in transfected cells; assay: Inhibitory effect on 33PO4 uptake into human NaPi-IIb-expressing CHO cells; type: cell-based; details: read-out: IC50
Sequence (O95436 whole entry): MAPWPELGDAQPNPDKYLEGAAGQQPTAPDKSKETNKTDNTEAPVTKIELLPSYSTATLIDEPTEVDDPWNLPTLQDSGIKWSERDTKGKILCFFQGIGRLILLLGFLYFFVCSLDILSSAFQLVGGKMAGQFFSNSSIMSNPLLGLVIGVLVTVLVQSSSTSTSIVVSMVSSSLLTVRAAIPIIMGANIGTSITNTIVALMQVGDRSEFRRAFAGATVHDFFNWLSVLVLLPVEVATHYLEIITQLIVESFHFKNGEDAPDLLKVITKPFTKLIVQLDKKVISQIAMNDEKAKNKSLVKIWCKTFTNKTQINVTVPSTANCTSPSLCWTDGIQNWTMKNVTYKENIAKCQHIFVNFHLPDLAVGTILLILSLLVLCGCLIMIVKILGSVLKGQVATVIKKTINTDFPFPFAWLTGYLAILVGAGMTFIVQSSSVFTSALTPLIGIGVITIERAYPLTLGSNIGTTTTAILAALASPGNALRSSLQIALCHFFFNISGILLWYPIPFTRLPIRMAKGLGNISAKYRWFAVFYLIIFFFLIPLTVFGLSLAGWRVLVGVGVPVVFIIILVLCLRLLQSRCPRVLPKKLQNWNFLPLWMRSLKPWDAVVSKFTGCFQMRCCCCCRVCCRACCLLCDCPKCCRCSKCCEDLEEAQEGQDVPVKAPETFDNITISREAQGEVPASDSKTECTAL
readout_name: IC50 (µM)

{"columns": ["smiles_data", "IC50 [µM]"],
 "data": [
  ["Cc1ccc(CN2C(=O)C(C(=O)Nc3ccc(C(F)(F)F)cc3-c3cc(C(F)(F)F)ncn3)=C(O)[C@@]3(C)CCCN23)cc1", 6.7],
  ["CN1N(Cc2ccc(OCCCCC(=O)O)c(F)c2F)C(=O)C(C(=O)Nc2ccc(C(F)(F)F)cc2-c2cc(C(F)(F)F)ncn2)=C(O)C12CCCC2", 19.5],
  ["COc1c(Cl)ncnc1-c1cc(C(F)(F)F)ccc1NC(=O)C1=C(O)[C@@]2(C)CCCN2N(Cc2cccc(F)c2F)C1=O", 12.9],
  ["C[C@]12CCCN1N(Cc1c(F)cc(OCCCCCOC[C@@H](O)CO)cc1F)C(=O)C(C(=O)Nc1ccc(C(F)(F)F)cc1-c1ccc(C(F)(F)F)nc1)=C2O", 6.2]
]}

a. C[C@]12CCCN1N(Cc1c(F)cc(OCCCCCCOC[C@@H](O)CO)cc1F)C(=O)C(C(=O)Nc1ccc(C(F)(F)F)cc1-c1ccc(C(F)(F)F)nc1)=C2O
b. CC1(C)C(O)=C(C(=O)Nc2ccc(C(F)(F)F)cc2-c2cc(C(F)(F)F)ncn2)C(=O)N(Cc2cccc(F)c2F)N1c1ccccc1
Inquiry: Lower value of IC50 belongs to which: a or b ? Bench note: the answer is the label of the chosen record.
Reply text: a
